Assay: Metabolic stability in rat liver microsomes assessed as parent compound remaining at 1 uM after 10 mins in presence of NADPH
Assay type: ADME, microsome
Conditions: read-out: Stability
PROPERTY MEASURED: remaining at 10 min, 1 µM (%)

Reference set, count: 2
| COMPOUND | PROPERTY MEASURED | ASSAY RESULT |
| --- | --- | --- |
| O=c1cc(NC2CCN(c3ncccn3)CC2)c2cc(C(c3ccc(Cl)cc3)c3ccc(Cl)cc3)ccc2[nH]1 | remaining at 10 min, 1 µM | 69 |
| O=c1cc(NC2CCN(S(=O)(=O)C(F)(F)F)CC2)c2cc(C(c3ccc(Cl)cc3)c3ccc(Cl)cc3)ccc2[nH]1 | remaining at 10 min, 1 µM | 100 |

1 = O=c1cc(NC2CCN(S(=O)(=O)C(F)(F)F)CC2)c2cc(C(c3ccc(Cl)cc3)c3nccs3)ccc2[nH]1 (centres undefined)
2 = O=c1cc(N[C@@H]2CCN(S(=O)(=O)C(F)(F)F)C2)c2cc(C(c3ccc(Cl)cc3)c3nccs3)ccc2[nH]1 (some centres undefined)
Input: # return whichever of 1 and 2 has the smaller remaining at 10 min, 1 µM Please respond with the label that marks your chosen entry.
Output: 2
